experiment: Cytotoxicity against african green monkey Vero cells; format: cell-based; settings: chlorocebus sabaeus, read-out: TC50 (the source's name)
Value Kind: CC50 (µM)
Numbers only, in µM.

Report CC50 for CC[C@H](C)[C@@H](C(=O)O[C@@H](CC(C)C)C(=O)N[C@@H](CC(C)C)C(=O)N[C@@H](C)/C=C/C(=O)N1C(=O)C=C(OC)[C@@H]1C)N(C)C [GALLINAMIDE A] please.
10.4

###

system: Leishmania donovani; experiment: Antileishmanial activity against Leishmania donovani; format: functional, organism-based
Value Kind: pIC50
One number for each entry, as −log10 of the molar value.

Compound | Observed Result
C[C@@H]1[C@H](O)[C@@H](C)/C=C/C=C/C=C/C=C/C=C/C=C/C=C/[C@H](O[C@@H]2O[C@H](C)[C@@H](O)[C@H](N)[C@@H]2O)C[C@@H]2O[C@](O)(C[C@@H](O)C[C@@H](O)[C@H](O)CC[C@@H](O)C[C@@H](O)CC(=O)O[C@H]1C)C[C@H](O)[C@H]2C(=O)O | 6.99

Shifting focus to the compound that follows.
Param item = CC[C@H](C)[C@@H](C(=O)O[C@@H](CC(C)C)C(=O)N[C@@H](CC(C)C)C(=O)N[C@@H](C)/C=C/C(=O)N1C(=O)C=C(OC)[C@@H]1C)N(C)C [GALLINAMIDE A] ; retrieve measured pIC50.
5.03
